- System: ACHN renal
- assay_protocol: NCI tumour cell line growth inhibition, 48 h
Consider the following molecules and their measured TGI readings.

Take a look at these entries with their results.
>>> obs_value("N#Cc1c(N)nc(SCc2ccccc2)c(C#N)c1-c1ccc(O)cc1")
"28.9 µM"
>>> obs_value("NCCCC(N=Cc1nc(-c2ccccc2)oc1O)C(=O)O (centres undefined)")
"> 100 µM"

As a next step, examine the molecule that follows.
Form field TGI, entry CC(C)N1C(C)[C@@H](c2ccccc2)O[P@@]1(=O)CC1=CCCCC1 (some centres undefined) : > 100 µM

* * *

Consider the following molecules and their measured TGI readings.
- Tested on: MOLT-4 leukemia
- assay_protocol: NCI tumour cell line growth inhibition, 48 h
Answer in µM, number only, no unit symbol.

Take a look at these entries with their results.
>>> obs_value("COc1ccc(/C=C2\\Sc3nnc(-c4ccccc4)n3N=C2c2cc(F)c(Cl)cc2Cl)cc1OC")
68.9
>>> obs_value("O=C(O)/C(Cl)=C(Cl)/C=N/NC(=O)c1cc2ccccc2cc1O")
34.9
>>> obs_value("CC(=O)c1c2c(cc3c1CC1(Cc4cc5c(cc4C1)C(=O)CCC5)C3)CCCC2 (stereo not given)")
7.96

As a next step, examine the molecule that follows.
Entry `COC(=O)c1sc2c(c1C(=O)OC)C(=NC(C)(C)C)SC2=NC(C)(C)C` : TGI on MOLT-4 leukemia = 31.8

* * *

- Test system: KM12 colon
- assay_protocol: NCI tumour cell line growth inhibition, 48 h; in the data active = GI50 below about 0.43 µM; inactive = the rest
Lab note: assign the record to one of 1 = active, 0 = inactive

>>> category("Cc1c(Cl)cccc1NC(=O)c1sc2nc3c(cc2c1N)C(=O)CCC3")
1
>>> category("Oc1ccc(Cl)cc1Sc1cc(Cl)ccc1O")
0
>>> category("CCC[CH2][Sn]([CH2]CCC)([O]C(=O)c1cc(F)ccc1F)[O]C(=O)c1cc(F)ccc1F")
0
>>> category("O=C(NCc1ccco1)C1CCN(S(=O)(=O)c2ccc(Cl)cc2)CC1")
0
>>> category("CC(C)(C)C(=O)c1c(C(F)(F)F)n([O-])c2cc(Cl)c(Cl)cc2[n+]1=O")
1

Look up the recorded call for C=CCC(N[C@H](CO)c1ccccc1)c1ccccn1 (some centres undefined) in this test.
0

Look up the recorded call for `O=C1c2ccn(CCCNC(CO)(CO)CO)c2C(=O)c2c1c(O)c1ccccc1c2O` in this test.
0

Look up the recorded call for `O=C(CSC(c1ccccc1)c1ccccc1)N/N=C/c1ccccc1Cl` in this test.
0

Look up the recorded call for `CC(C)c1[nH]nc2c(NCc3ccc(-c4ccccn4)cc3)nc(SCCN(C)C)nc12` in this test.
1

Look up the recorded call for `C#CCOc1cccc(Nc2ncnc3cc(NC(=O)C=C)ccc23)c1` in this test.
0

Look up the recorded call for `C(=C\c1ccncc1)/c1ccncc1` in this test.
0

Look up the recorded call for Cc1nc2sc(C(=O)Nc3ccccc3)c(N)c2cc1C(O)c1ccccc1 (centres undefined) in this test.
1

Look up the recorded call for `O=C1C(Cl)=C(Nc2cc(Cl)ccc2O)C(=O)N1Cc1ccccc1` in this test.
0

Look up the recorded call for OC(CN1CCCC2CCCCC21)c1cc2ccccc2c2ccccc12 (centres undefined) in this test.
0

* * *

- System: UO-31 renal
- assay_protocol: NCI tumour cell line growth inhibition, 48 h
test_readout: GI50

Take a look at these entries with their results.
>>> obs_value("COc1ccc(/C=C\\c2cc(OC)c(OC)c(OC)c2)cc1OC(=O)CC(N)C(=O)O (stereo unspecified)")
"0.0017 µM"
>>> obs_value("Cc1ccc(-c2c3c(nn2-c2ccc(S(=O)(=O)NC(=O)NC4CCCCC4)cc2)-c2ccccc2C3)cc1")
"1.33 µM"

Form field GI50, entry `O=C1c2ccn(CCCNC(CO)(CO)CO)c2C(=O)c2c1c(O)c1ccccc1c2O` : 13.4 µM

Form field GI50, entry CNCC(=O)NC(CO)C(=O)NC(CO)C(=O)NC1C(C(N)=O)OC(n2ccc(N)nc2=O)C(O)C1O (stereo unspecified) : 12.4 µg/mL

Form field GI50, entry `Cc1ccc(N=Nc2c(O)ccc3n[nH]nc23)cc1` : 11.7 µM

Form field GI50, entry `Cc1cc(-c2nc3n(c2/C=N/N=C(N)N)CCS3)c(C)s1` : 17.8 µM

Form field GI50, entry COc1cc(C2c3cc4c(cc3[C@@H](Nc3ccc([N+](=O)[O-])cc3)C3COC(=O)[C@H]23)OCO4)cc(OC)c1O (stereo partly specified) : 0.753 µM

Form field GI50, entry `C(=C\c1ccncc1)/c1ccncc1` : 50.5 µM

Form field GI50, entry `CSc1nnc(-c2cc3c([nH]c4ccccc43)c(-c3cccc(O)c3)n2)n1-c1ccc(C)cc1` : 1.93 µM

Form field GI50, entry `O=C(CSC(c1ccccc1)c1ccccc1)N/N=C/c1ccccc1Cl` : 30.9 µM

Form field GI50, entry `CC1=CC(C)(C)Nc2ccc(Cc3ccc4c(c3)C(C)=CC(C)(C)N4)cc21` : 7.27 µM

Form field GI50, entry `[Cl][Hg][c]1ccc2ccccc2c1` : 4.44 µM

Form field GI50, entry C[C@@]1(C(=O)O)CCC[C@]2(C)C1CC[C@]13C[C@@](O)(CO)[C@](O)(CC[C@]12O)C3 (stereo partly specified) : > 100 µM

Form field GI50, entry `CC1=NN(c2cccc(Cl)c2)C(=O)/C1=C\C=C\c1ccccc1` : 1.62 µM

Form field GI50, entry `O=c1cc(-c2ccccc2)oc2cc(OCCCCCN3CCOCC3)cc(O)c12` : 32.7 µM

Form field GI50, entry `Oc1ccc(Cl)cc1Sc1cc(Cl)ccc1O` : 2.24 µM

* * *

- Test system: SF-295 CNS
- assay_protocol: NCI tumour cell line growth inhibition, 48 h
Consider the following compounds and their measured TGI readings.

>>> obs_value("O=C1c2ccn(CCCNC(CO)(CO)CO)c2C(=O)c2c1c(O)c1ccccc1c2O")
"> 49.8 µM"
>>> obs_value("COc1cc(C2c3cc4c(cc3[C@@H](Nc3ccc([N+](=O)[O-])cc3)C3COC(=O)[C@H]23)OCO4)cc(OC)c1O (stereo partly drawn)")
"4.85 µM"
>>> obs_value("CO[C@@H]1C[C@H]2[C@@H]3CC[C@H]([C@H](C)COC(C)=O)[C@@]3(C)CC[C@@H]2[C@@]2(C)CC[C@H]3C[C@]312")
"> 100 µM"
>>> obs_value("CC1CC(=NC2CCCCC2)Nc2ccccc2N1Cc1ccccc1 (stereo not drawn)")
"19.4 µM"
>>> obs_value("CC(NP(=O)(c1ccccc1)c1ccccc1)c1ccccc1 (stereo not drawn)")
"> 100 µM"
>>> obs_value("CCOC(=O)C(=O)Nc1c(C)cccc1C(C)(C)C")
"> 100 µM"

Entry `COc1ccc(CCc2ccc3c(c2)OCO3)cc1` : TGI on SF-295 CNS = > 100 µM

Entry C[C@]12CC(C=O)C(=O)C(O)=C1CC[C@@H]1C2CC[C@@]2(C)C1CC[C@]2(C)O (stereo partly drawn) : TGI on SF-295 CNS = 66.6 µM

Entry `Cc1c(NC(=O)Nc2c(Cl)cccc2Cl)c(=O)n(-c2ccccc2)n1C` : TGI on SF-295 CNS = > 100 µM

Entry `COC(=O)CSc1nc2[nH]c(SC)c(C(N)=O)c2c(=O)n1-c1ccccc1` : TGI on SF-295 CNS = > 10 µM

* * *

- System: SN12C renal
- assay_protocol: NCI tumour cell line growth inhibition, 48 h
test_readout: GI50

>>> obs_value("Cc1cc(Cl)nc(N(CCCNc2ccnc3cc(Cl)ccc23)Cc2cccs2)n1")
"1400 nM"

Form field GI50, entry `COc1c(B(O)O)cccc1-c1nc2ccc3[nH]ncc3c2c2c1CCCC2` : 1770 nM

Form field GI50, entry `CC1=CC(C)(C)Nc2ccc(Cc3ccc4c(c3)C(C)=CC(C)(C)N4)cc21` : 11200 nM

Form field GI50, entry C=CCC(N[C@H](CO)c1ccccc1)c1ccccn1 (stereo not given in full) : > 100000 nM

Form field GI50, entry `Cc1nn(Cc2ccccc2)cc1C(=O)Nc1sc2c(c1C(N)=O)CCC(=O)C2` : 2610 nM

* * *

Consider the following molecules and their measured TGI readings.
- System: PC-3 prostate
- assay_protocol: NCI tumour cell line growth inhibition, 48 h

>>> obs_value("CSc1ncc2c(C#N)c3[nH]c4ccccc4n3c(=O)c2n1")
"48.7 µM"
>>> obs_value("Nc1nc(Cl)c(N)c(NCC2(CO)CCC(CCc3ccccc3)C2)n1 (stereo unspecified)")
"49.7 µM"
>>> obs_value("O=C1C(c2c(O)[nH]c3ccc(Cl)cc23)=Nc2ccccc21")
"> 28 µM"
>>> obs_value("CCOC(=O)CC(=O)Nc1cccc2sc3ncccc3c(=O)c12")
"> 100 µM"
>>> obs_value("C=CCSC1=N/C(=C\\c2ccc(OC)cc2)C(=O)N1CC=C")
"80.1 µM"

Form field TGI, entry `O=C(NCCCl)Nc1ccccc1` : > 100 µM
